- System: E. coli BW25113
- protocol: Minimum Inhibitory Concentration (MIC) determination, E. coli BW25113
- Type: cell-based
- Parameters: unit not given here
- measurement_context: LB broth, 5×10^5 CFU/ml, 37° C., 18 hours, scored by eye
Bridge positions count the residues as written; N and C are the ends. Square brackets hold non-standard residues; d marks the D form. Peptide text beside a SMILES is read from it. 1Nal = N[C@@H](Cc1cccc2ccccc12)C(=O)O; His(π-Me) = Cn1cncc1C[C@H](N)C(=O)O; NMeY = CN[C@@H](Cc1ccc(O)cc1)C(=O)O; NMeF = CN[C@@H](Cc1ccccc1)C(=O)O; Gly(N(CH2)3NH2) = NCCCNCC(=O)O; Nle = CCCC[C@H](N)C(=O)O; Abu = CC[C@H](N)C(=O)O
Lab note: cut-off is 20. Strictly less in MIC E. coli BW25113 WUXI::MIC is y. Exactly 20 or more is n.

CC[C@@H]1NC(=O)[C@H](Cc2ccccc2)NC(=O)CSC[C@@H](C(=O)NCC(N)=O)NC(=O)[C@H](Cc2cncn2C)NC(=O)[C@H](CC)NC(=O)[C@H](Cc2c[nH]cn2)NC(=O)[C@H](Cc2ccccc2)N(C)C(=O)[C@H](CCCNC(=N)N)NC(=O)[C@H](CO)NC(=O)CNC(=O)[C@H](Cc2c[nH]cn2)NC(=O)[C@H](Cc2cccc3ccccc23)NC1=O [Compound 5] ({CH2CO}-F[Abu][1Nal]HGSR[NMeF]H[Abu][His(π-Me)]CG-NH2; thioether N-12) | n
CC[C@@H]1NC(=O)[C@H](Cc2ccccc2)NC(=O)CSC[C@@H](C(=O)NCC(N)=O)NC(=O)[C@H](Cc2cncn2C)NC(=O)[C@H](CCCNC(=N)N)NC(=O)[C@H](Cc2c[nH]cn2)NC(=O)[C@H](Cc2ccc(O)cc2)N(C)C(=O)[C@H](CCCNC(=N)N)NC(=O)[C@H](CO)NC(=O)CN(CCCN)C(=O)[C@H](Cc2c[nH]cn2)NC(=O)[C@H](Cc2cccc3ccccc23)NC1=O [Compound 29] ({CH2CO}-F[Abu][1Nal]H[Gly(N(CH2)3NH2)]SR[NMeY]HR[His(π-Me)]CG-NH2; thioether N-12) | y
CC[C@@H]1NC(=O)[C@H](Cc2c[nH]cn2)NC(=O)[C@H](Cc2ccccc2)N(C)C(=O)[C@H](CC)NC(=O)[C@H](CO)NC(=O)CNC(=O)[C@H](Cc2c[nH]cn2)NC(=O)[C@H](Cc2cccc3ccccc23)NC(=O)[C@H](C(C)C)NC(=O)[C@H](Cc2ccccc2)NC(=O)CSC[C@@H](C(=O)NCC(N)=O)NC(=O)[C@H](Cc2cncn2C)NC1=O [Compound 8] ({CH2CO}-FV[1Nal]HGS[Abu][NMeF]H[Abu][His(π-Me)]CG-NH2; thioether N-12) | n
CC[C@@H]1NC(=O)[C@H](Cc2ccccc2)NC(=O)CSC[C@@H](C(=O)NCC(N)=O)NC(=O)[C@H](C)NC(=O)[C@H](CCCNC(=N)N)NC(=O)[C@H](Cc2c[nH]cn2)NC(=O)[C@H](Cc2ccc(O)cc2)N(C)C(=O)[C@H](CCCNC(=N)N)NC(=O)[C@H](CO)NC(=O)CNC(=O)[C@H](Cc2c[nH]cn2)NC(=O)[C@H](Cc2cccc3ccccc23)NC1=O [Compound 39] ({CH2CO}-F[Abu][1Nal]HGSR[NMeY]HRACG-NH2; thioether N-12) | n
CC[C@@H]1NC(=O)[C@H](Cc2ccccc2)NC(=O)CSC[C@@H](C(=O)NCC(N)=O)NC(=O)[C@H](Cc2cncn2C)NC(=O)[C@H](CCCNC(=N)N)NC(=O)[C@H](Cc2cnc[nH]2)NC(=O)[C@H](Cc2ccc(O)cc2)N(C)C(=O)[C@H](CCCNC(=N)N)NC(=O)[C@H](CO)NC(=O)CNC(=O)[C@H](Cc2cnc[nH]2)NC(=O)[C@H](Cc2c[nH]c3ccccc23)NC1=O (racemic) | y
CC[C@@H]1NC(=O)[C@H](Cc2ccccc2)NC(=O)CSC[C@@H](C(=O)NCC(N)=O)NC(=O)[C@H](Cc2cncn2C)NC(=O)[C@H](CCCNC(=N)N)NC(=O)[C@H](Cc2cnc[nH]2)NC(=O)[C@H](Cc2ccccc2)N(C)C(=O)[C@H](CCCNC(=N)N)NC(=O)[C@H](CO)NC(=O)CNC(=O)[C@H](Cc2c[nH]cn2)NC(=O)[C@H](Cc2c[nH]c3ccccc23)NC1=O [Compound 7] ({CH2CO}-F[Abu]WHGSR[NMeF]HR[His(π-Me)]CG-NH2; thioether N-12) | y
CC[C@@H]1NC(=O)[C@H](Cc2ccccc2)NC(=O)CSC[C@@H](C(=O)NCC(N)=O)NC(=O)[C@H](Cc2cncn2C)NC(=O)[C@H](CCCNC(=N)N)NC(=O)[C@H](C)NC(=O)[C@H](Cc2ccc(O)cc2)N(C)C(=O)[C@H](CCCNC(=N)N)NC(=O)[C@H](CO)NC(=O)CNC(=O)[C@H](Cc2c[nH]cn2)NC(=O)[C@H](Cc2cccc3ccccc23)NC1=O [Compound 37] ({CH2CO}-F[Abu][1Nal]HGSR[NMeY]AR[His(π-Me)]CG-NH2; thioether N-12) | n
CCCC[C@@H]1NC(=O)CSC[C@@H](C(=O)NCC(N)=O)NC(=O)[C@H](Cc2cncn2C)NC(=O)[C@H](CCCNC(=N)N)NC(=O)[C@H](Cc2c[nH]cn2)NC(=O)[C@H](Cc2ccc(O)cc2)N(C)C(=O)[C@H](CCCNC(=N)N)NC(=O)[C@H](CO)NC(=O)CNC(=O)[C@H](Cc2c[nH]cn2)NC(=O)[C@H](Cc2cccc3ccccc23)NC(=O)[C@H](CC)NC1=O [Compound 20] ({CH2CO}-[Nle][Abu][1Nal]HGSR[NMeY]HR[His(π-Me)]CG-NH2; thioether N-12) | n
CC(C)[C@@H]1NC(=O)[C@H](Cc2ccccc2)NC(=O)CSC[C@@H](C(=O)NCC(N)=O)NC(=O)[C@H](Cc2cnc[nH]2)NC(=O)[C@H](CCCNC(=N)N)NC(=O)[C@H](Cc2cnc[nH]2)NC(=O)[C@H](Cc2ccccc2)N(C)C(=O)[C@H](CCCNC(=N)N)NC(=O)[C@H](CO)NC(=O)CNC(=O)[C@H](Cc2cnc[nH]2)NC(=O)[C@H](Cc2c[nH]c3ccccc23)NC1=O (racemic) | n

* * *

- Tested on: K. pneumoniae ATCC43816
- protocol: Minimum Inhibitory Concentration (MIC) determination, K. pneumoniae ATCC43816
- Format: cell-based
- Set-up: unit not given here
- measurement_context: LB broth, 5×10^5 CFU/ml, 37° C., 18 hours, scored by eye
Bridge positions count the residues as written; N and C are the ends. Square brackets hold non-standard residues; d marks the D form. Peptide text beside a SMILES is read from it. Phe(4-Cl) = N[C@@H](Cc1ccc(Cl)cc1)C(=O)O; 1Nal = N[C@@H](Cc1cccc2ccccc12)C(=O)O; His(π-Me) = Cn1cncc1C[C@H](N)C(=O)O; NMeY = CN[C@@H](Cc1ccc(O)cc1)C(=O)O; Abu = CC[C@H](N)C(=O)O
# reported MIC K. pneumoniae ATCC43816 Wuxi::MIC; entries follow
outcome_measure: MIC K. pneumoniae ATCC43816 Wuxi::MIC

CC[C@@H](C)[C@H]1NC(=O)[C@@H](Cc2ccccc2)NC(=O)CSC[C@H](C(=O)NCC(N)=O)NC(=O)[C@@H](Cc2cncn2C)NC(=O)[C@@H](CCCNC(=N)N)NC(=O)[C@@H](Cc2cnc[nH]2)NC(=O)[C@@H](Cc2ccc(O)cc2)N(C)C(=O)[C@@H](CCCNC(=N)N)NC(=O)[C@@H](CO)NC(=O)CNC(=O)[C@@H](Cc2cnc[nH]2)NC(=O)[C@@H](Cc2cccc3ccccc23)NC1=O (mixture of isomers) | 19
CC[C@@H]1NC(=O)[C@H](Cc2ccc(Cl)cc2)NC(=O)CSC[C@@H](C(=O)NCC(N)=O)NC(=O)[C@H](Cc2cncn2C)NC(=O)[C@H](CCCNC(=N)N)NC(=O)[C@H](Cc2c[nH]cn2)NC(=O)[C@H](Cc2ccc(O)cc2)N(C)C(=O)[C@H](CCCNC(=N)N)NC(=O)[C@H](CO)NC(=O)CNC(=O)[C@H](Cc2c[nH]cn2)NC(=O)[C@H](Cc2cccc3ccccc23)NC1=O [Compound 22] ({CH2CO}-[Phe(4-Cl)][Abu][1Nal]HGSR[NMeY]HR[His(π-Me)]CG-NH2; thioether N-12) | 13

* * *

- Test system: E. coli BW25113
- protocol: Minimum Inhibitory Concentration (MIC) determination, E. coli BW25113
- Format: cell-based
- Parameters: unit not given here
- measurement_context: LB broth, 5×10^5 CFU/ml, 37° C., 18 hours, scored by eye
Bridge positions count the residues as written; N and C are the ends. Square brackets hold non-standard residues; d marks the D form. Peptide text beside a SMILES is read from it. NMePhe(4-Cl) = CN[C@@H](Cc1ccc(Cl)cc1)C(=O)O; 1Nal = N[C@@H](Cc1cccc2ccccc12)C(=O)O; His(π-Me) = Cn1cncc1C[C@H](N)C(=O)O; NMeF = CN[C@@H](Cc1ccccc1)C(=O)O; Abu = CC[C@H](N)C(=O)O
Item-by-item account of MIC E. coli BW25113 WUXI::MIC
outcome_measure: MIC E. coli BW25113 WUXI::MIC

CC[C@@H]1NC(=O)[C@H](Cc2ccccc2)NC(=O)CSC[C@@H](C(=O)NCC(N)=O)NC(=O)[C@H](Cc2cncn2C)NC(=O)[C@H](CCCNC(=N)N)NC(=O)[C@H](Cc2c[nH]cn2)NC(=O)[C@H](Cc2ccc(Cl)cc2)N(C)C(=O)[C@H](CCCNC(=N)N)NC(=O)[C@H](CO)NC(=O)CNC(=O)[C@H](Cc2c[nH]cn2)NC(=O)[C@H](Cc2cccc3ccccc23)NC1=O [Compound 33] ({CH2CO}-F[Abu][1Nal]HGSR[NMePhe(4-Cl)]HR[His(π-Me)]CG-NH2; thioether N-12) | 25
CC[C@@H]1NC(=O)[C@H](Cc2ccccc2)NC(=O)CSC[C@@H](C(=O)NCC(N)=O)NC(=O)[C@H](Cc2cncn2C)NC(=O)[C@H](CC)NC(=O)[C@H](Cc2c[nH]cn2)NC(=O)[C@H](Cc2ccccc2)N(C)C(=O)[C@H](CCCNC(=N)N)NC(=O)[C@H](CO)NC(=O)CNC(=O)[C@H](Cc2c[nH]cn2)NC(=O)[C@H](Cc2c[nH]c3ccccc23)NC1=O [Compound 4] ({CH2CO}-F[Abu]WHGSR[NMeF]H[Abu][His(π-Me)]CG-NH2; thioether N-12) | >32
